Measured values drawn from the supplement of paper PMC6555819 for this set.

System: PPARa:RXRa (NR concentration 270 nM, RXRa partner concentration 90 nM)
Experiment: PBM binding z-score (relative to random genomic background probes); higher = stronger binding; sequences stand for … in GC…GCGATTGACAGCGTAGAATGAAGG
Reported endpoint: PBM binding z-score

[
  {
    "Primary sequence": "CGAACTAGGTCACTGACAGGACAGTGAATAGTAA",
    "Reported endpoint": "PBM binding z-score",
    "Test value": 4.7
  },
  {
    "Primary sequence": "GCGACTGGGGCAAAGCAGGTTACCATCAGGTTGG",
    "Reported endpoint": "PBM binding z-score",
    "Test value": 1.24
  },
  {
    "Primary sequence": "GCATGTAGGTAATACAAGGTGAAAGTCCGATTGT",
    "Reported endpoint": "PBM binding z-score",
    "Test value": 1.62
  },
  {
    "Primary sequence": "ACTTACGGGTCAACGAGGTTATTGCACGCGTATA",
    "Reported endpoint": "PBM binding z-score",
    "Test value": 5.64
  },
  {
    "Primary sequence": "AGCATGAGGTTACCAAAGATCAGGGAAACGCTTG",
    "Reported endpoint": "PBM binding z-score",
    "Test value": 2.77
  }
]
